System: MCF7
experiment: Cytotoxicity against human MCF7 cells after 72 hrs
Assay type: functional, cell-based
condition: MCF7, 72 h
pIC50: −log10 of the molar value.
Below, each entry is listed with its recorded pIC50.
endpoint-name: pIC50

> print(dat)
                                   compound  assay.target  endpoint.name  readout.qualifier  reported.measurement
1  CC1(C)C=Cc2c(ccc(C(=O)/C=C/c3ccc(O)cc3)c2O)O1          MCF7          pIC50                  =                  4.57
2  COc1cc(/C=C/c2cc(OC)c3c(c2)OC(C)(C)C=C3)ccc1O          MCF7          pIC50                  <                  4.52
3  COc1ccc([C@@H]2CC(=O)c3c(O)c(CC=C(C)C)c4c(c3O2)C=CC(C)(C)O4)cc1OC          MCF7          pIC50                  =                  5.18
4  COc1cc([C@@H]2CC(=O)c3c(O)c(CC=C(C)C)c4c(c3O2)C=CC(C)(C)O4)ccc1O          MCF7          pIC50                  =                  5.52
5            Oc1ccc(/C=C/c2cc(O)cc(O)c2)cc1          MCF7          pIC50                  <                  4.52
6      O=c1c(-c2ccc(O)cc2)coc2cc(O)cc(O)c12          MCF7          pIC50                  <                  4.52
7  COc1ccc([C@@H]2CC(=O)c3cc(CC=C(C)C)c4c(c3O2)C=CC(C)(C)O4)cc1OC          MCF7          pIC50                  =                  5.24

====

experiment: Cytotoxicity against mouse Hepa1clc7 cells after 72 hrs
Assay type: functional, cell-based
endpoint-name: IC50 (µM)

> print(dat)
                                   compound  readout.qualifier  reported.measurement
1  CC1(C)C=Cc2c(ccc(C(=O)/C=C/c3ccc(O)cc3)c2O)O1                  =                    10
2  COc1ccc([C@@H]2CC(=O)c3cc(CC=C(C)C)c4c(c3O2)C=CC(C)(C)O4)cc1OC                  =                   5.1
3  COc1cc(/C=C/C(=O)c2ccc3c(c2O)C=CC(C)(C)O3)ccc1O                  =                   5.9
4  COc1cc(/C=C/c2cc(OC)c3c(c2)OC(C)(C)C=C3)ccc1O                  =                    13
5            Oc1ccc(/C=C/c2cc(O)cc(O)c2)cc1                  =                    11
6  COc1cc(OC)c(-c2coc3c4c(ccc3c2=O)OC(C)(C)[C@@H](O)[C@H]4O)cc1OC (relative stereo)                  >                    30
7  COc1ccc([C@@H]2CC(=O)c3c(O)c(CC=C(C)C)c4c(c3O2)C=CC(C)(C)O4)cc1OC                  =                   8.5
8  COc1cc([C@@H]2CC(=O)c3c(O)c(CC=C(C)C)c4c(c3O2)C=CC(C)(C)O4)ccc1O                  =                   3.5
9      O=c1c(-c2ccc(O)cc2)coc2cc(O)cc(O)c12                  =                    11
